Catalogue of IC50 values
Molecular target: human renal renin (Homo sapiens, UniProt P00797)
Sequence (P00797 67-406): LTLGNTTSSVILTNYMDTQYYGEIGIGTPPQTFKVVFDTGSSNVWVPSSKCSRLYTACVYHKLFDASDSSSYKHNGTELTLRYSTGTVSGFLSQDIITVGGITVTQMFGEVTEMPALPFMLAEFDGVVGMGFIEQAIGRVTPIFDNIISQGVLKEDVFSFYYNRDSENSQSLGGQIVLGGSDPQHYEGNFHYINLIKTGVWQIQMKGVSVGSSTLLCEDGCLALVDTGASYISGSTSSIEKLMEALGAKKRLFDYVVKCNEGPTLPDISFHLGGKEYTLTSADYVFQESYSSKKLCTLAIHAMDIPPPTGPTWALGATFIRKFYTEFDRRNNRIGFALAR
Counter-ions that a name gives are not always drawn.
The reply should contain only the number, in nM.

molecule="CC(C)C[C@H](O)[C@H](O)[C@H](CC1CCCCC1)NC(=O)[C@H](Cc1c[nH]cn1)NC(=O)[C@H](Cc1ccccc1)NC(=O)C(C)(C)CN [Example 82, Bis acetic acid salt]" attribute_measured=IC50 measurement_unit=nM result_number=0.6

Exercise: Find the measured IC50: item "CC(C)C[C@H](O)[C@H](O)[C@H](CC1CCCCC1)NC(=O)[C@H](Cc1cnc[nH]1)NC(=O)[C@H](Cc1ccccc1)NC(=O)C(C)(C)CNC(=O)OCc1ccccc1" , target or system human renal renin (Homo sapiens, UniProt P00797).
Key: 0.6

Exercise: Item: "CCOC(=O)N[C@@H](Cc1ccccc1)C(=O)N(C)[C@@H](Cc1c[nH]cn1)C(=O)N[C@@H](CC1CCCCC1)[C@@H](O)[C@@H](O)CC(C)C" Test system: human renal renin (Homo sapiens, UniProt P00797) Read-out: IC50 Value: ?
Key: 2

Exercise: Test system human renal renin (Homo sapiens, UniProt P00797); read-out IC50; what value for C[C@H](NC(=O)[C@H](Cc1ccccc1)NC(=O)OC(C)(C)C)C(=O)N[C@@H](CC1CCCCC1)C(O)CO (stereo partly shown) ?
Key: 4000
